Data provenance: the NIST ThermoML archive (doi:10.1016/j.fluid.2011.12.029)

Condition details: 308.15 K; 100 kPa; Liquid; Vibrating tube method
Readout label: mass density (kg/m3)

INSERT INTO assay_data (compound, measurement) VALUES
  ('CCCC[n+]1ccccc1.O=S(=O)([O-])C(F)(F)F [1-butylpyridinium trifluoromethanesulfonate]', 1307.87),
  ('CCCC[n+]1cccc(C)c1.N#C[N-]C#N [1-butyl-3-methylpyridinium dicyanamide]', 1043.21),
  ('CCC[n+]1ccccc1Oc1ccc(Cl)c[n+]1CCOS(=O)(=O)[O-].F[B-](F)(F)F', 1246.14),
  ('CCCC[n+]1ccccc1.F[B-](F)(F)F [1-butylpyridinium tetrafluoroborate]', 1207.32),
  ('CCCCCCCC[n+]1cccc(C)c1.F[B-](F)(F)F [N-octyl-3-methylpyridinium tetrafluoroborate]', 1089.26);
